system: CCRF-CEM leukemia; experiment: NCI-60 one-dose screen, 48 h; details: 10 µM unless noted
This is part of a sample that, as a whole, favours compounds with a hit. Of some 83,000 tested, about 20% had one in any assay. Calls of active or inactive are those of the source. How the source made its calls: active means growth percent below 10; inactive means the rest.
// one of y (active), n (inactive), no free text

State the result this test recorded for `C=C1C(=O)O[C@@H]2C[C@@H](C)/C=C\C(=O)[C@](C)(OC(C)=O)C[C@H](OC(=O)/C(C)=C\C)[C@@H]12` .
y

State the result this test recorded for `COc1ccc(-c2nn(-c3ccccc3)cc2/C=C/C(=O)c2ccc(NC(=O)CCCCCCC(=O)NO)cc2)cc1` .
n

State the result this test recorded for `COc1ccc(OC)c([C@H]2c3[nH]c4ccccc4c3C[C@H]3C(=O)N(CCCCCCC(=O)NO)CC(=O)N23)c1` .
n

State the result this test recorded for `COc1cc2c3c(n(CCCNC4CCC4)c(=O)c2cc1OC)-c1cc2c(cc1C3=O)OCO2` .
y

State the result this test recorded for `O=C1CSC(=O)N1Cc1cc2ccccc2nc1Cl` .
n

***
State the result this test recorded for `CNC(=O)c1cc(Oc2ccc3nc(NC(=O)c4cc(C)cc(C)c4)sc3c2)ccn1` .
n

State the result this test recorded for `C[C@H]1[C@H](C)CC[C@]2(COC(=O)c3cccnc3)CC[C@]3(C)C(=CC[C@@H]4[C@@]5(C)CCCNC(C)(C)[C@@H]5CC[C@]43C)[C@H]12` .
n

State the result this test recorded for `N/C(=N\c1nc2c(Cl)cccc2s1)C(Cl)(Cl)Cl` .
n

State the result this test recorded for `COc1ccc2c(C3=C(c4cn(C)c5ccccc45)C(=O)NC3=O)coc2c1` .
n

* * *

tested on: CCRF-CEM leukemia; assay: NCI-60 one-dose screen, 48 h; conditions: 10 µM unless noted
This is part of a sample that, as a whole, favours compounds with a hit. Of some 83,000 tested, about 20% had one in any assay. Active and inactive are the calls of the source. How the source made its calls: active means growth percent below 10; inactive means the rest.
// one of active, inactive, no free text

Some solved cases for reference:
State the result this test recorded for `CN(C)c1ncc(/C=C2\SC(=S)N(Cc3ccccc3Cl)C2=O)s1` .
inactive

State the result this test recorded for `CS(=O)(=O)c1nccc(-c2c(-c3ccc(F)c(OCCc4ccccc4)c3)nc3sccn23)n1` .
inactive

State the result this test recorded for `CC1=CC(=O)CC(C)(C)[C@@]1(O)/C=C/C(C)=C\C(=O)O` .
active

State the result this test recorded for `CC(=O)NC(C)(C)C(=O)N[C@@H](C)C(=O)NC(C)(C)C(=O)N[C@@H](C)C(=O)NC(C)(C)C(=O)N[C@@H](C)C(=O)N[C@@H](CCC(N)=O)C(=O)NC(C)(C)C(=O)N[C@H](C(=O)NC(C)(C)C(=O)NCC(=O)N[C@@H](CC(C)C)C(=O)NC(C)(C)C(=O)N1CCC[C@H]1C(=O)N[C@H](C(=O)NC(C)(C)C(=O)NC(C)(C)C(=O)N[C@@H](CCC(N)=O)C(=O)N[C@@H](CCC(N)=O)C(=O)N[C@H](CO)CC1CCCCC1)C(C)C)C(C)C` .
inactive

State the result this test recorded for `NS(=O)(=O)Oc1ccc2nc(Nc3ccc(F)c(F)c3)ccc2c1` .
inactive

***
State the result this test recorded for `O=C(NCCCNc1cc(-c2cn(-c3ccccc3)nc2-c2cccc(O)c2)ccn1)Nc1cc(C(F)(F)F)cc(C(F)(F)F)c1` .
inactive

State the result this test recorded for `Cn1c2ccc(Br)cc2c2c3c(c4c5cc(F)ccc5oc4c21)C(=O)N(O)C3=O` .
inactive
